Source: patent US20240238305A1

Assay: Wet ball milling: particle size and soluble fraction
Type: physicochemical
Conditions: aqueous with cosolvent or surfactant or cyclodextrin, thermodynamic from solid; 2% Kolliphor ® RH40, @ 24 hr, 1 mm beads
quantity: solubility at 24 h
Please answer in the form of a number followed by its unit of measurement.

Supply recorded solubility at 24 h for CC(C)CS(=O)(=O)c1ccccc1Oc1ccc(-c2noc(CN3C(=O)N(CCN4CCOCC4)C(C)(C)C3=O)n2)cc1C(F)(F)F here.
650 µg/mL

* * *

Test: Solubility of Compound 1 in different excipients
Type: physicochemical
Conditions: aqueous with cosolvent or surfactant or cyclodextrin, thermodynamic from solid; 0.5% Tyloxapol pH 7
quantity: solubility
Please answer in the form of a number followed by its unit of measurement.

Supply recorded solubility for CC(C)CS(=O)(=O)c1ccccc1Oc1ccc(-c2noc(CN3C(=O)N(CCN4CCOCC4)C(C)(C)C3=O)n2)cc1C(F)(F)F here.
34 µg/mL

* * *

Experiment: Solubility of Compound 1 in different excipients
Assay type: physicochemical
Details: aqueous with cosolvent or surfactant or cyclodextrin; 5% Kolliphor ® EL pH 7; measured pH 7.01
quantity: solubility
Please answer in the form of a number followed by its unit of measurement.

Supply recorded solubility for CC(C)CS(=O)(=O)c1ccccc1Oc1ccc(-c2noc(CN3C(=O)N(CCN4CCOCC4)C(C)(C)C3=O)n2)cc1C(F)(F)F [Compound 1] here.
690 µg/mL

* * *

Experiment: Wet ball milling: particle size and soluble fraction
Assay type: physicochemical
Conditions: aqueous with cosolvent or surfactant or cyclodextrin, thermodynamic from solid; 1% Kolliphor ® RH-40 @ 24 hr, 3 mm beads
quantity: solubility at 24 h (µg/mL)
// note: answer is a bare numeric in µg/mL

Supply recorded solubility at 24 h for CC(C)CS(=O)(=O)c1ccccc1Oc1ccc(-c2noc(CN3C(=O)N(CCN4CCOCC4)C(C)(C)C3=O)n2)cc1C(F)(F)F here.
344

* * *

Assay: Solubility of Compound 1 in different excipients
Assay type: physicochemical
Conditions: aqueous with cosolvent or surfactant or cyclodextrin, thermodynamic from solid; 5% HP-β-CD pH 5; measured pH 5.28
quantity: solubility (mg/mL)
// note: answer is a bare numeric in mg/mL

Supply recorded solubility for CC(C)CS(=O)(=O)c1ccccc1Oc1ccc(-c2noc(CN3C(=O)N(CCN4CCOCC4)C(C)(C)C3=O)n2)cc1C(F)(F)F here.
0.18

* * *

Assay: Solubility of Compound 1 in different excipients
Type: physicochemical
Conditions: aqueous with cosolvent or surfactant or cyclodextrin; 5% Kolliphor ® EL pH 6; measured pH 6.16
quantity: solubility (µg/mL)
// note: answer is a bare numeric in µg/mL

Supply recorded solubility for CC(C)CS(=O)(=O)c1ccccc1Oc1ccc(-c2noc(CN3C(=O)N(CCN4CCOCC4)C(C)(C)C3=O)n2)cc1C(F)(F)F here.
740

* * *

Test: Solubility of Compound 1 in different excipients
Assay type: physicochemical
Conditions: aqueous with cosolvent or surfactant or cyclodextrin, thermodynamic from solid; 5% HP-β-CD pH 7; measured pH 7.03
quantity: solubility (µg/mL)
// note: answer is a bare numeric in µg/mL

Supply recorded solubility for CC(C)CS(=O)(=O)c1ccccc1Oc1ccc(-c2noc(CN3C(=O)N(CCN4CCOCC4)C(C)(C)C3=O)n2)cc1C(F)(F)F [Compound 1] here.
50

* * *

Experiment: Wet ball milling: particle size and soluble fraction
Format: physicochemical
Conditions: aqueous with cosolvent or surfactant or cyclodextrin, thermodynamic from solid; 1% Kolliphor ® EL @ 24 hr, 3 mm beads
quantity: solubility at 24 h (µg/mL)
// note: answer is a bare numeric in µg/mL

Supply recorded solubility at 24 h for CC(C)CS(=O)(=O)c1ccccc1Oc1ccc(-c2noc(CN3C(=O)N(CCN4CCOCC4)C(C)(C)C3=O)n2)cc1C(F)(F)F [Compound 1] here.
270

* * *

Test: Solubility of Compound 1 in different excipients
Assay type: physicochemical
Conditions: pH 7.1, aqueous with cosolvent or surfactant or cyclodextrin; 5% PEG400 pH 7; measured pH 7.10
quantity: solubility (µg/mL)
// note: answer is a bare numeric in µg/mL

Supply recorded solubility for CC(C)CS(=O)(=O)c1ccccc1Oc1ccc(-c2noc(CN3C(=O)N(CCN4CCOCC4)C(C)(C)C3=O)n2)cc1C(F)(F)F here.
3

* * *

Assay: Solubility of Compound 1 in different excipients
Format: physicochemical
Details: aqueous with cosolvent or surfactant or cyclodextrin; 5% Kolliphor ® EL pH 5; measured pH 5.34
quantity: solubility (µg/mL)
// note: answer is a bare numeric in µg/mL

Supply recorded solubility for CC(C)CS(=O)(=O)c1ccccc1Oc1ccc(-c2noc(CN3C(=O)N(CCN4CCOCC4)C(C)(C)C3=O)n2)cc1C(F)(F)F here.
1010

* * *

Test: Solubility of Compound 1 in different excipients
Type: physicochemical
Conditions: aqueous with cosolvent or surfactant or cyclodextrin, thermodynamic from solid; 5% HP-β-CD pH 6; measured pH 6.13
quantity: solubility (µg/mL)
// note: answer is a bare numeric in µg/mL

Supply recorded solubility for CC(C)CS(=O)(=O)c1ccccc1Oc1ccc(-c2noc(CN3C(=O)N(CCN4CCOCC4)C(C)(C)C3=O)n2)cc1C(F)(F)F here.
70

* * *

Experiment: Wet ball milling: particle size and soluble fraction
Assay type: physicochemical
Details: aqueous with cosolvent or surfactant or cyclodextrin, thermodynamic from solid; 2% Kolliphor ® RH-40 @ 24 hr, 3 mm beads
quantity: solubility at 24 h (µg/mL)
// note: answer is a bare numeric in µg/mL

Supply recorded solubility at 24 h for CC(C)CS(=O)(=O)c1ccccc1Oc1ccc(-c2noc(CN3C(=O)N(CCN4CCOCC4)C(C)(C)C3=O)n2)cc1C(F)(F)F [Compound 1] here.
669

* * *

Assay: Solubility of Compound 1 in different excipients
Format: physicochemical
Conditions: aqueous with cosolvent or surfactant or cyclodextrin; 5% Kolliphor ® RH40; measured pH 6.91
quantity: solubility
Please answer in the form of a number followed by its unit of measurement.

Supply recorded solubility for CC(C)CS(=O)(=O)c1ccccc1Oc1ccc(-c2noc(CN3C(=O)N(CCN4CCOCC4)C(C)(C)C3=O)n2)cc1C(F)(F)F [Compound 1] here.
443 µg/mL

* * *

Assay: Wet ball milling: particle size and soluble fraction
Type: physicochemical
Settings: aqueous with cosolvent or surfactant or cyclodextrin, thermodynamic from solid; 2% Kolliphor ® EL @ 24 hr, 3 mm beads
quantity: solubility at 24 h (µg/mL)
// note: answer is a bare numeric in µg/mL

Supply recorded solubility at 24 h for CC(C)CS(=O)(=O)c1ccccc1Oc1ccc(-c2noc(CN3C(=O)N(CCN4CCOCC4)C(C)(C)C3=O)n2)cc1C(F)(F)F [Compound 1] here.
528
